Target: HIV-1 RT-associated RNA-dependent DNA-polymerase (RDDP) (Human immunodeficiency virus type 1 group M subtype B)
Construct: The full length HIV-1 RT group M subtype B was expressed and purified; made in house
Assay: biochemical
Design: species or system HIV-1 group M subtype B
parameterMeasured: IC50
Form field: result (number plus unit)

Reported IC50, compound COc1ccc(-c2ccccc2C(N)=O)cc1/C=N/Nc1nc(-c2ccc([N+](=O)[O-])cc2)cs1 : ____
8 µM

---

A short record of IC50 observed with HIV-1 RT-associated RNase H (Human immunodeficiency virus type 1 group M subtype B) follows.
Numbers only, in µM.

COc1ccc(-c2ccccc2C(N)=O)cc1C=NNc1nc(-c2ccc(Cl)c(Cl)c2)cs1 6.5
COc1ccc(-c2csc(NN=Cc3cc(-c4ccc(F)cc4)ccc3OC)n2)cc1 29.5
COc1ccc(-c2csc(NN=Cc3cc(-c4ccccc4Br)ccc3OC)n2)cc1 13
COc1ccc(-c2ccccc2C(N)=O)cc1C=NNc1nc(-c2ccc(Cl)cc2)cs1 8
COc1ccc(-c2ccccc2)cc1C=NNc1nc(-c2ccc([N+](=O)[O-])cc2)cs1 12.8

State the recorded IC50 for every item in the following list.
1. COc1ccc(-c2ccccc2Br)cc1C=NNc1nc(-c2ccc(Cl)cc2)cs1
2. COc1ccc(-c2ccc(F)cc2)cc1C=NNc1nc(-c2ccc(Cl)c(Cl)c2)cs1
3. COc1ccc(-c2ccc(F)cc2)cc1C=NNc1nc(-c2ccc(Cl)cc2)cs1
4. COc1ccc(-c2ccccc2)cc1C=NNc1nc(-c2ccc(Cl)c(Cl)c2)cs1

47
52.5
55.5
57

---

Target: HIV-1 RT-associated RNA-dependent DNA-polymerase (RDDP) (Human immunodeficiency virus type 1 group M subtype B, UniProt P04585)
Construct: The full length HIV-1 RT group M subtype B was expressed and purified; made in house
Experiment: biochemical
Set-up: species or system HIV-1 group M subtype B
Details: read-out: RDDP IC50
parameterMeasured: pIC50
Give bare numbers, as −log10 of the molar value.

State the recorded pIC50 for every item in the following list.
1. COc1ccc(-c2ccc(F)cc2)cc1C=NNc1nc(-c2ccc([N+](=O)[O-])cc2)cs1
2. COc1ccc(-c2csc(N/N=C/c3cc(-c4ccccc4C(N)=O)ccc3OC)n2)cc1
3. COc1ccc(-c2ccccc2Br)cc1C=NNc1nc(-c2ccc(Cl)cc2)cs1
4. COc1ccc(-c2ccccc2)cc1C=NNc1nc(-c2ccc([N+](=O)[O-])cc2)cs1
5. COc1ccc(-c2csc(NN=Cc3cc(-c4ccccc4Br)ccc3OC)n2)cc1
6. COc1ccc(-c2ccccc2Br)cc1C=NNc1nc(-c2ccc(Cl)c(Cl)c2)cs1

4.32
4.57
4.15
4.40
4.49
4.27

State the recorded pIC50 for every item in the following list.
1. COc1ccc(-c2ccccc2)cc1C=NNc1nc(-c2ccc(Cl)c(Cl)c2)cs1
2. COc1ccc(-c2ccccc2C(N)=O)cc1C=NNc1nc(-c2ccc(Cl)c(Cl)c2)cs1
3. COc1ccc(-c2csc(NN=Cc3cc(-c4ccc(F)cc4)ccc3OC)n2)cc1

[4.06, 4.71, 4.21]

State the recorded pIC50 for every item in the following list.
1. COc1ccc(-c2ccc(F)cc2)cc1C=NNc1nc(-c2ccc(Cl)cc2)cs1
2. COc1ccc(-c2ccccc2)cc1C=NNc1nc(-c2cccc(Cl)c2)cs1
3. COc1ccc(-c2csc(NN=Cc3cc(-c4ccccc4)ccc3OC)n2)cc1
4. COc1ccc(-c2ccccc2Br)cc1C=NNc1nc(-c2ccc([N+](=O)[O-])cc2)cs1
5. COc1ccc(-c2ccc(F)cc2)cc1C=NNc1nc(-c2ccc(Cl)c(Cl)c2)cs1
6. COc1ccc(-c2ccccc2C(N)=O)cc1C=NNc1nc(-c2ccc(Cl)cc2)cs1

1. 4.23
2. 4.25
3. 4.44
4. 4.52
5. 4.18
6. 4.77
